tested on: F1 hybrid maize plants; test: efficacy field trial with segregating F1 hybrid plants; type: in vivo; details: CTP A; 2,4-D amine 2× at VE-V2 (plus quizalofop-P 0.5×), V4, V8
assay.readout: % Injury from V4 2,4-D

| molecule | reading |
| --- | --- |
| MON-HT2: engineered oxygenase protein, amino acid sequence SEQ ID NO:18 (protein) MHAALTPLTNKYRFIDVQPLTGVLGAEITGVDLREPLDDSTWNEILDAFHTYQVIYFPGQAITNEQHIAFSRRFGPVDPVPLLKSIEGYPEVQMIRREANESSRVIGDDWHSDSTFLDAPPAAVVMRAIEVPEYGGDTGFLSMYSAWETLSPTMQATIEGLNVVHSATKVFGSLYQATNWRFSNTSVKVMDVDAGDRETVHPLVVTHPVTGRRALYCNQVYCQKIQGMTDAESKSLLQFLYEHATKFDFTCRVRWKKDQVLVWDNLCTMHRAAPDYAGKFRYLTRTTVAGDKPSR | 20% |
| MON-HT7: engineered oxygenase protein, amino acid sequence SEQ ID NO:34 (protein) MHAALTPLTNKYRFIDVQPLTGVLGAEITGVDLREPLDDSTWNEILDAFHTYQVIYFPGQAITNEQHIAFSRRFGPVDPVPLLKSIEGYPEVQMIRREANESGRVIGDDWHADSTFLDAPPAAVVMRAIEVPEYGGDTGFLSMYSAWETLSPTMQATIEGLNVVHSATKVFGSLYQATNWRFSNTSVKVMDVDAGDRETVHPLVVTHPVTGRRALYCNQVYCQKIQGMTDAESKSLLQFLYEHATKFDFTCRVRWKKDQVLVWDNLCTMHRSVPDYAGKFRYLTRTTVAGDKPSR | 21.6% |
| MON-HT1: engineered oxygenase protein, amino acid sequence SEQ ID NO:14 (protein) MHAALTPLTNKYRFIDVQPLTGVLGAEITGVDLREPLDDSTWNEILDAFHTYQVIYFPGQAITNEQHIAFSRRFGPVDPVPILKSIEGYPEVQMIRREANESSRFIGDDWHTDSTFLDAPPAAVVMRAIEVPEYGGDTGFLSMYSAWETLSPTMQATIEGLNVVHSATKVFGSLYQATNWRFSNTSVKVMDVDAGDRETVHPLVVTHPVTGRRALYCNQVYCQKIQGMTDAESKSLLQFLYEHATKFDFTCRVRWKKDQVLVWDNLCTMHRAVPDYAGKFRYLTRTTVAGDKPSR | 7.5% |
